Molecular target: Bcr-Abl^T315I (Homo sapiens, UniProt P00519, T315I)
Assay: Kinase activation assay (IC50), fluorescence polarization tyrosine kinase assay kit
Settings: T315I mutation kinase domain (Millipore), Poly (Glu, Tyr) 4:1 substrate, FP readout
# IC50 values compiled below

// known answers, use as guide
Molecule: CNc1ncnc2c(C(=O)Nc3cc(NC(=O)c4cc(-n5cnc(C)c5)cc(C(F)(F)F)c4)ccc3C)csc12 [Example 78]
IC50: 100 to 1000 nM
--
Molecule: Cc1ccc(NC(=O)c2ccc(CN3CC[C@H](N(C)C)C3)c(C(F)(F)F)c2)cc1NC(=O)c1csc2c(NC3CC3)ncnc12 [Example 76]
IC50: 1 to 100 nM
--
Molecule: COc1cc(NC(=O)c2ccc(C)c(NC(=O)c3csc4c(N)ncnc34)c2)cc(OC)c1 [Example 12]
IC50: 100 to 1000 nM
--
Molecule: Cc1ccc(NC(=O)c2cc(N3CCOCC3)cc(C(F)(F)F)c2)cc1NC(=O)c1csc2c(NC3CC3)ncnc12 [Example 86]
IC50: 100 to 1000 nM

[ask] Look at this molecule and give its reported IC50. COc1cccc(C(=O)Nc2ccc(C)c(NC(=O)c3csc4c(N)ncnc34)c2)c1 [Example 65]
[reply] 1000 to 10000 nM

[ask] What value of measured IC50 is listed for CCN1CCN(c2cc(C(=O)Nc3ccc(C)c(NC(=O)c4csc5c(NC6CC6)ncnc45)c3)cc(C(F)(F)F)c2)CC1 [Example 110] ?
[reply] 100 to 1000 nM

[ask] Quick check: IC50 of COc1cc(OC)cc(C(=O)Nc2ccc(C)c(NC(=O)c3csc4c(N)ncnc34)c2)c1 [Example 43] ?
[reply] 100 to 1000 nM

###

Biological target: Bcr-Abl^T315I (Homo sapiens, UniProt P00519, T315I)
Sequence (P00519 242-493 T315I limits assumed): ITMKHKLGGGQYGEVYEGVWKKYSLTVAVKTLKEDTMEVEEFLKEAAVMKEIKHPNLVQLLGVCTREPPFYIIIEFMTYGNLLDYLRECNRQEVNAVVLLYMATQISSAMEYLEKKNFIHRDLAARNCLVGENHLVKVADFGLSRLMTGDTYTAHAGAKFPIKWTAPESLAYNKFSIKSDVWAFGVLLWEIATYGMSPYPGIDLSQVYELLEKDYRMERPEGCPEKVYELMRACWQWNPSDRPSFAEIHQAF
Test: Kinase activation assay (IC50), fluorescence polarization tyrosine kinase assay kit
Conditions: T315I mutation kinase domain (Millipore), Poly (Glu, Tyr) 4:1 substrate, FP readout
Quantity kind: IC50

Some solved entries appear below for comparison.
Compound: COc1ccc(C(=O)Nc2cc(-n3cnc(C)c3)cc(C(F)(F)F)c2)cc1NC(=O)c1csc2c(NC3CC3)ncnc12 [Example 36]
Reported measurement: 1 to 10 µM
//
Compound: CC(=O)OCc1ccc(NC(=O)c2ccc(C)c(NC(=O)c3csc4c(NC5CC5)ncnc34)c2)cc1C(F)(F)F [Example 23]
Reported measurement: 1 to 10 µM

Here is another compound to look at.
[ask] Can you share its IC50? I mean this compound: Cc1ccc(C(=O)Nc2cccc(C(F)(F)F)c2)cc1NC(=O)c1csc2c(NC(C)C)ncnc12 [Example 17]
[reply] 1 to 10 µM

###

Reported IC50 is given for each of the following compounds.
Target: Bcr-Abl^T315I (Homo sapiens, UniProt P00519, T315I)
Experiment: Kinase activation assay (IC50), fluorescence polarization tyrosine kinase assay kit
Settings: T315I mutation kinase domain (Millipore), Poly (Glu, Tyr) 4:1 substrate, FP readout

Compound: Cc1ccc(NC(=O)c2cc(-n3cccc3)cc(C(F)(F)F)c2)cc1NC(=O)c1csc2c(N)ncnc12 [Example 45]
Tested on: Bcr-Abl^T315I (Homo sapiens, UniProt P00519, T315I)
IC50: 1 to 100 nM
--
Compound: Cc1ccc(NC(=O)c2cccc(C(F)(F)F)c2)cc1NC(=O)c1csc2c(N)ncnc12 [Example 39]
Tested on: Bcr-Abl^T315I (Homo sapiens, UniProt P00519, T315I)
IC50: 1 to 100 nM
--
Compound: COc1cc(Nc2ncnc3c(C(=O)Nc4cc(C(=O)Nc5cccc(C(F)(F)F)c5)ccc4C)csc23)cc(OC)c1OC [Example 14]
Tested on: Bcr-Abl^T315I (Homo sapiens, UniProt P00519, T315I)
IC50: 1000 to 10000 nM

Pending compound:
[ask] Fill in the blank: the reported IC50 of CCN1CCN(c2cc(NC(=O)c3ccc(C)c(/C=C/c4csc5c(N)ncnc45)c3)cc(C(F)(F)F)c2)CC1 [Example 3] is ____.
[reply] 1000 to 10000 nM

Values were extracted from patent US8999973B2.
